What inhibition was measured for each of the following?
# Target under test: Platelet-activating factor acetylhydrolase 2, cytoplasmic (Homo sapiens)
# Protocol details: inhibition of cytoplasmic PAF acetylhydrolase 2 – biochemical, fluorescence polarization, human, primary screen (AID 492956);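 also: inhibitors block probe labeling of enzyme so polarization drops; 0% = enzyme with DMSO and 100% = wells lacking PAFAH2 protein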
# Stated conditions: recombinant PAFAH2, FP-rhodamine activity probe, at 3.39 µM, hits give high values
Among all 340,000 compounds or so, about 3,300 (0.97%) were called active. What follows is part of a selection rich in actives, with near analogues and random picks from the rest.
One number for each entry, in %.

These recorded examples may help you get a feel for the data.
>>> endpoint_value("CCCCNS(=O)(=O)c1ccc2nc(SCC(=O)Nc3cc(C)cc(C)c3)[nH]c2c1")
-16.9
>>> endpoint_value("Nc1nnnn1/N=C/c1cc([N+](=O)[O-])ccc1O")
-12.5

Count: 3. Required value per item: inhibition.
1. COCCNC(=O)c1snc2ccc(Cl)cc12
2. O=C(Nc1ccc(Cl)cc1)C1c2cccc[n+]2CC(=O)N1Cc1ccc2c(c1)OCO2 (stereo not given)
3. COCCNC(=O)Nc1ccc2nc(-c3ccco3)c(-c3ccco3)nc2c1

Completion:
-2.13
43.6
35.8

* * *

# Target under test: Platelet-activating factor acetylhydrolase 2, cytoplasmic (Homo sapiens)
# Protocol details: inhibition of cytoplasmic PAF acetylhydrolase 2 – biochemical, fluorescence polarization, human, primary screen (AID 492956);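 also: inhibitors block probe labeling of enzyme so polarization drops; 0% = enzyme with DMSO and 100% = wells lacking PAFAH2 protein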
# Stated conditions: recombinant PAFAH2, FP-rhodamine activity probe, at 3.39 µM, hits give high values
Screen size: about 340,000 compounds; about 3,300 (0.97%) were called active. For the sample, actives were picked, then their nearest neighbours and some compounds at random.
Recorded endpoint: inhibition (%)
One number for each entry, in %.

Answered cases to consult:
>>> endpoint_value("O=C(Cc1ccc(NC(=O)C2CCCN(C(=O)C3CCCCC3)C2)cc1)Nc1cccc(C(=O)N2CCCCC2)c1 (centres undefined)")
-2.71
>>> endpoint_value("CCCCNC(=O)OC(C)CNC(=O)OC (centres undefined)")
-6.1
>>> endpoint_value("CC(=O)Nc1ccc(NC(=O)COC(=O)c2ccccc2C(=O)c2ccccc2)cc1")
32.1
>>> endpoint_value("Cc1ccc(OCC(=O)N2CCN(S(=O)(=O)c3ccc(Cl)s3)CC2)cc1C")
6.03
>>> endpoint_value("Cc1cc(N)n(-c2ccc(S(=O)(=O)N3CCCC3)cc2[N+](=O)[O-])n1")
3.65

Parameters: items (list). Returns: inhibition for each item.
1. O=C(OCC(=O)N1CCN(C(=O)c2ccco2)CC1)c1ccccc1Cc1ccccc1
2. CCN1CCN(c2ccc(S(=O)(=O)N3CCCCC3)cc2NC(=O)Cc2c(Cl)cccc2Cl)CC1
3. Cc1ccc(/C=N/NC(=O)Cn2ccc(C(F)(F)F)n2)o1
4. O=C(COC(=O)CCCN1C(=O)c2cccc3cccc(c23)C1=O)NC1CCS(=O)(=O)C1 (centres undefined)
5. O=C(COC(=O)/C=C/c1cccc(Cl)c1)NCCc1ccccc1
6. Nc1nc(Br)c2ccccc2c1-c1ccc(F)cc1

Completion:
[10.9, 12.9, -1.08, 3.81, 20.5, 0.32]

State recorded inhibition for all listed molecules.
1. N#Cc1ccc(N2Cc3ccccc3/C2=N/C(=O)Nc2ccc(Cl)cc2)cc1
2. O=C(COC(=O)c1ccccc1C(=O)c1ccccc1)c1ccco1
3. CC(=O)Nc1ccc(S(=O)(=O)NCC2CCC(C(=O)NCCc3ccccc3)CC2)cc1 (centres undefined)
4. C/C(=N/Nc1nc(-c2ccccc2)c(CC(=O)O)s1)c1ccccc1
5. COc1ccc(C(=O)ON=C2c3ccccc3-c3ccccc32)cc1OC

Completion:
1: -0.92; 2: 43; 3: 6.72; 4: 0.51; 5: 72.8

For every record below, what is its inhibition?
1. COc1ccc(NC(=O)ON=C2c3ccccc3-c3ccccc32)cc1
2. C[C@H](NC(=O)c1ccccc1Cl)C(=O)OCC(=O)N1CCN(c2ccccc2)CC1
3. Cc1c(Br)cc(C(=O)N2CCCCCC2)c(C)c1C
4. Cc1onc(C(=O)NCc2ccc(F)cc2)c1[N+](=O)[O-]
5. CCOc1ccc(/C=N/OCC(=O)NCc2cccs2)cc1
6. O=C(OCC(=O)N1CCN(c2ccccc2)CC1)c1ccc([N+](=O)[O-])s1
7. COC(=O)CNc1nc(Cl)nc(N2CCC(C)CC2)n1
8. CCN(C(=O)COC(=O)c1sccc1C)c1c(N)n(Cc2ccccc2)c(=O)[nH]c1=O

Completion:
-4.24
-2.12
1.14
-3.19
4.81
35.3
-3.76
-2.58

Here are 5 molecules. What values of inhibition were reported for them?
1. O=C(COC(=O)CNC(=O)c1ccccc1F)NCC(F)(F)F
2. COc1cc(C(C)=O)ccc1OC(=O)CN1C(=O)c2ccccc2C1=O
3. CC(CCc1ccccc1)NC(=O)COC(=O)c1ccc(F)cc1 (centres undefined)
4. CCc1ccc(C(=O)OCC(=O)NCC(F)(F)F)cc1
5. CCCCn1c(O)c(N=NC(=O)Cn2c(C(F)(F)F)nc3ccccc32)c2ccccc21

Completion:
1. 1.7
2. 1.95
3. 28
4. 73.5
5. -3.07
